Biological target: μ receptor (Mus musculus, UniProt P42866)
Construct: naloxone as mu antagonist (printed 'agonist')
Sequence (P42866 whole entry): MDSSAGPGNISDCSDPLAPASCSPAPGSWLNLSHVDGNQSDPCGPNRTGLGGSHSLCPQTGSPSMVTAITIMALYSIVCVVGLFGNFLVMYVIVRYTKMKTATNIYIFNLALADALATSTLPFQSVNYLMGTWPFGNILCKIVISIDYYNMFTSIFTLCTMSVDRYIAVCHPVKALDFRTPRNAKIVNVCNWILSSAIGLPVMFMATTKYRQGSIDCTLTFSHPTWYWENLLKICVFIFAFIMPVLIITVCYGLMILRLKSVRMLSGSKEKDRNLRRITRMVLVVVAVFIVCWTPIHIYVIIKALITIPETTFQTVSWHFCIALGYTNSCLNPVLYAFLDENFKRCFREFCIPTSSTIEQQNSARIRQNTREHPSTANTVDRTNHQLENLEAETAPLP
Test: Opioid activity test using an extracted mouse vas deferens preparation, Ke with naloxone
Set-up: species or system male ddy mouse
Conditions: naloxone added
Where a name gives a salt, the structure may show the parent alone.
Give measured Ke, Naloxone for each item. Keep answers brief.
One number for each entry, in nM.

molecule="CN(C(=O)/C=C/c1ccc(Cl)cc1)[C@@H]1CC[C@@]2(O)[C@H]3Cc4ccc(O)c5c4[C@@]2(CCN3CC2CC2)[C@H]1O5 [Compound 152, hydrochloride]" assayed_system="μ receptor (Mus musculus, UniProt P42866)" unit_info=nM observed=17.5
molecule="CN(C(=O)/C=C/c1cccc(Br)c1)[C@@H]1CC[C@@]2(O)[C@H]3Cc4ccc(O)c5c4[C@@]2(CCN3CC2CC2)[C@H]1O5 [Compound 151, hydrobromide]" assayed_system="μ receptor (Mus musculus, UniProt P42866)" unit_info=nM observed=0.94
molecule="CN(C(=O)CCCc1ccccc1)[C@@H]1CC[C@@]2(O)[C@H]3Cc4ccc(O)c5c4[C@@]2(CCN3CC2CC2)[C@H]1O5 [Compound 150]" assayed_system="μ receptor (Mus musculus, UniProt P42866)" unit_info=nM observed=137

Would you mind giving Ke, Naloxone for every molecule in the list below?
1. CN(C(=O)/C=C/C1CCCCC1)[C@@H]1CC[C@@]2(O)[C@H]3Cc4ccc(O)c5c4[C@@]2(CCN3CC2CC2)[C@H]1O5 [Compound 68]
2. CN(C(=O)COc1ccccc1)[C@H]1CC[C@@]2(O)[C@H]3Cc4ccc(O)c5c4[C@@]2(CCN3CC2CC2)[C@H]1O5 [Compound 38]
3. Cc1cccc(C#CC(=O)N(C)[C@@H]2CC[C@@]3(O)[C@H]4Cc5ccc(O)c6c5[C@@]3(CCN4CC3CC3)[C@H]2O6)c1.Cl [Compound 172]

Response:
[5710, 411, 16.16]

* * *

Target: κ receptor (Mus musculus, UniProt P33534)
Construct: from tissue; host or cells: mouse (male ddy) vas deferens
Sequence (P33534 whole entry): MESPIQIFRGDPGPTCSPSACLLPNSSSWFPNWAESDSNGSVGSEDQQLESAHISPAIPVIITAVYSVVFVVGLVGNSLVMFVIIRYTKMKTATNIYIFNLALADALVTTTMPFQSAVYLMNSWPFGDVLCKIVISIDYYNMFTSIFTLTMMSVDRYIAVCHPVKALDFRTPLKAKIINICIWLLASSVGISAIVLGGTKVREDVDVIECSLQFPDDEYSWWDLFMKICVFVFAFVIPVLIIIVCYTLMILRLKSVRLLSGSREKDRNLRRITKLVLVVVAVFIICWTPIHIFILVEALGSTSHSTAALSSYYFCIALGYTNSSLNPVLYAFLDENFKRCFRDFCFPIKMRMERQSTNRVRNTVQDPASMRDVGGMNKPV
Test: Opioid activity test using an extracted mouse vas deferens preparation, Ke with norBNI
Design: species or system male ddy mouse
Settings: κ, norBNI added
Counter-ions that a name gives are not always drawn.
So I've got a bunch of molecules here, and I need their Ke, norBNI values.
One number for each entry, in nM.

molecule=CN(C(=O)CC(=O)c1ccccc1)[C@H]1CC[C@@]2(O)[C@H]3Cc4ccc(O)c5c4[C@@]2(CCN3CC2CC2)[C@H]1O5 unit_info=nM observed=1.35

Give Ke, norBNI for all molecules that follow.
1. COc1cccc(/C=C/C(=O)N(C)[C@@H]2CC[C@@]3(O)[C@H]4Cc5ccc(O)c6c5[C@@]3(CCN4CC3CC3)[C@H]2O6)c1
2. CN(C(=O)/C=C/c1cccc(Cl)c1)[C@@H]1CC[C@@]2(O)[C@H]3Cc4ccc(O)c5c4[C@@]2(CCN3CC2CC2)[C@H]1O5 [Compound 154, hydrochloride]

Response:
[1.60, 0.133]

* * *

Kindly supply the reported ED (200% urine output) values for the records listed here.
Assay: Diuretic action (urine output for 5 hours after physiological saline loading in rats)
Format: in vivo, male Wistar rats
Settings: Rattus norvegicus, sc, dose giving urine output of 200 (non-dosed group = 100), 5 hours after saline 20 ml/kg p.o.
Where a name gives a salt, the structure may show the parent alone.
Answers are plain numbers, in µg/kg.

Observe how each entry below is paired with its result.
molecule=CN(C(=O)CCCc1ccccc1)[C@H]1CC[C@@]2(O)[C@H]3Cc4ccc(O)c5c4[C@@]2(CCN3CC2CC2)[C@H]1O5 observed=24.5
molecule=CCCCCC(=O)N(C)[C@@H]1CC[C@@]2(O)[C@H]3Cc4ccc(O)c5c4[C@@]2(CCN3CC2CC2)[C@H]1O5 observed=101
molecule=CN(C(=O)/C=C/c1ccc(Cl)c(Cl)c1)[C@H]1CC[C@@]2(O)[C@H]3Cc4ccc(O)c5c4[C@@]2(CCN3CC2CC2)[C@H]1O5 observed=5.7
molecule=CCC/C=C/C(=O)N(C)[C@@H]1CC[C@@]2(O)[C@H]3Cc4ccc(O)c5c4[C@@]2(CCN3CC2CC2)[C@H]1O5 observed=15.9

Go through the list and state ED (200% urine output) for each entry.
1. CN(C(=O)/C=C/c1ccoc1)[C@H]1CC[C@@]2(O)[C@H]3Cc4ccc(O)c5c4[C@@]2(CCN3CC2CC2)[C@H]1O5
2. CN(C(=O)/C=C/C1CCCCC1)[C@@H]1CC[C@@]2(O)[C@H]3Cc4ccc(O)c5c4[C@@]2(CCN3CC2CC2)[C@H]1O5
3. C/C=C/C=C/C(=O)N(C)[C@@H]1CC[C@@]2(O)[C@H]3Cc4ccc(O)c5c4[C@@]2(CCN3CC2CC2)[C@H]1O5
4. Cc1cccc(C#CC(=O)N(C)[C@@H]2CC[C@@]3(O)[C@H]4Cc5ccc(O)c6c5[C@@]3(CCN4CC3CC3)[C@H]2O6)c1.Cl

Response:
[1.2, 1.6, 0.94, 3.23]

Please report ED (200% urine output) for every entry that follows.
1. CCCCOC(=O)N(C)[C@H]1CC[C@@]2(O)[C@H]3Cc4ccc(O)c5c4[C@@]2(CCN3CC2CC2)[C@H]1O5
2. CN(C(=O)CCCc1ccccc1)[C@@H]1CC[C@@]2(O)[C@H]3Cc4ccc(O)c5c4[C@@]2(CCN3CC2CC2)[C@H]1O5

Response:
1. 1.6
2. 42.9

Query: Look up ED (200% urine output) of CN(C(=O)/C=C/c1cccc(Cl)c1)[C@@H]1CC[C@@]2(O)[C@H]3Cc4ccc(O)c5c4[C@@]2(CCN3CC2CC2)[C@H]1O5 [Compound 154, hydrochloride] and report it.
Response: 2.14

* * *

Target: μ receptor (Mus musculus)
Construct: naloxone as mu antagonist (printed 'agonist')
Experiment: Opioid activity test using an extracted mouse vas deferens preparation, Ke with naloxone
Parameters: species or system male ddy mouse
Conditions: naloxone added
Mark true only for Ke, Naloxone values smaller than 30 nM; exact matches and larger values are false.

Recorded results for 5 compounds are shown here.
chemical_smiles=COc1cccc(/C=C/C(=O)N(C)[C@@H]2CC[C@@]3(O)[C@H]4Cc5ccc(O)c6c5[C@@]3(CCN4CC3CC3)[C@H]2O6)c1 class_assignment=false
chemical_smiles=CN(C(=O)C#Cc1ccccc1)[C@H]1CC[C@@]2(O)[C@H]3Cc4ccc(O)c5c4[C@@]2(CCN3CC2CC2)[C@H]1O5 class_assignment=false
chemical_smiles=CN(C(=O)/C=C/c1ccoc1)[C@H]1CC[C@@]2(O)[C@H]3Cc4ccc(O)c5c4[C@@]2(CCN3CC2CC2)[C@H]1O5 class_assignment=true
chemical_smiles=CN(C(=O)/C=C/c1cccc(F)c1)[C@H]1CC[C@@]2(O)[C@H]3Cc4ccc(O)c5c4[C@@]2(CCN3CC2CC2)[C@H]1O5 class_assignment=false
chemical_smiles=CN(C(=O)CSc1ccccc1)[C@H]1CC[C@@]2(O)[C@H]3Cc4ccc(O)c5c4[C@@]2(CCN3CC2CC2)[C@H]1O5 class_assignment=true

Shifting focus to the compound that follows.
Query: Criterion: Ke, Naloxone strictly below 30 nM. Is it met by `CN(C(=O)OCc1ccc([N+](=O)[O-])cc1)[C@H]1CC[C@@]2(O)[C@H]3Cc4ccc(O)c5c4[C@@]2(CCN3CC2CC2)[C@H]1O5` ?
Response: false

* * *

Assay: Diuretic action (urine output for 5 hours after physiological saline loading in rats)
Format: in vivo, male Wistar rats
Details: Rattus norvegicus, sc, dose giving urine output of 200 (non-dosed group = 100), 5 hours after saline 20 ml/kg p.o.
METRIC_NAME: log10 of ED (200% urine output) (log10 of the value in mg/kg)
Friendly reminder: values = log10 of ED (200% urine output), unit mg/kg.

Illustrative cases are given below, each with its answer.
chemical_smiles=CN(C(=O)CC(=O)c1ccccc1)[C@@H]1CC[C@@]2(O)[C@H]3Cc4ccc(O)c5c4[C@@]2(CCN3CC2CC2)[C@H]1O5 metric_name="log10 of ED (200% urine output)" observed=-1.08
chemical_smiles=CN(C(=O)/C=C/c1cccc([N+](=O)[O-])c1)[C@H]1CC[C@@]2(O)[C@H]3Cc4ccc(O)c5c4[C@@]2(CCN3CC2CC2)[C@H]1O5 metric_name="log10 of ED (200% urine output)" observed=-2.35
chemical_smiles=CN(C(=O)CCc1ccccc1)[C@@H]1CC[C@@]2(O)[C@H]3Cc4ccc(O)c5c4[C@@]2(CCN3CC2CC2)[C@H]1O5 metric_name="log10 of ED (200% urine output)" observed=-1.37

Required: log10 of ED (200% urine output), one value per compound below.
1. CN(C(=O)Cc1cccc([N+](=O)[O-])c1)[C@H]1CC[C@@]2(O)[C@H]3Cc4ccc(O)c5c4[C@@]2(CCN3CC2CC2)[C@H]1O5
2. CN(C(=O)c1ccc(Cl)c(Cl)c1)[C@H]1CC[C@@]2(O)[C@H]3Cc4ccc(O)c5c4[C@@]2(CCN3CC2CC2)[C@H]1O5
3. CN(C(=O)Cc1cccc(F)c1)[C@H]1CC[C@@]2(O)[C@H]3Cc4ccc(O)c5c4[C@@]2(CCN3CC2CC2)[C@H]1O5
4. CN(C(=O)CCc1ccccc1)[C@H]1CC[C@@]2(O)[C@H]3Cc4ccc(O)c5c4[C@@]2(CCN3CC2CC2)[C@H]1O5

Response:
[-1.58, -1.61, -0.44, -3.02]

For each listed entry, give its log10 of ED (200% urine output).
1. CN(C(=O)/C=C/c1cccc(C(F)(F)F)c1)[C@@H]1CC[C@@]2(O)[C@H]3Cc4ccc(O)c5c4[C@@]2(CCN3CC2CC2)[C@H]1O5
2. CCCCOC(=O)N(C)[C@@H]1CC[C@@]2(O)[C@H]3Cc4ccc(O)c5c4[C@@]2(CCN3CC2CC2)[C@H]1O5
3. CN(C(=O)/C=C/c1ccccc1)[C@@H]1CC[C@@]2(O)[C@H]3Cc4ccc(O)c5c4[C@@]2(CCN3CC2CC2)[C@H]1O5
4. COc1cccc(C#CC(=O)N(C)[C@@H]2CC[C@@]3(O)[C@H]4Cc5ccc(O)c6c5[C@@]3(CCN4CC3CC3)[C@H]2O6)c1.O=C(O)C(O)C(O)C(=O)O
5. CN(C(=O)COc1ccccc1)[C@H]1CC[C@@]2(O)[C@H]3Cc4ccc(O)c5c4[C@@]2(CCN3CC2CC2)[C@H]1O5

Response:
[-1.84, -1.98, -2.96, -1.56, -2.42]

Data origin: patent US6177438A
